Each recorded value in this set is attributed to paper PMC9482650.

# Target Or System: SCRIB_3, Q14160
# Sequence (Q14160 999-1103): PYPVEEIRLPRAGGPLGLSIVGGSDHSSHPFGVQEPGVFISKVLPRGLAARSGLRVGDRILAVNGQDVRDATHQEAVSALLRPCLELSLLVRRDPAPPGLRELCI
# Protocol: holdup assay
# Parameters: key: below the threshold = too weak to quantify, mostly under pKd 3.1 to 4
# Condition Context: plain residues with an end cap or a label only (N-terminal biotin on a linker: ado-ado)
Overview of recorded pKd for various binders
Experimental Readout: pKd

INSERT INTO measurements (binder, reported_measurement) VALUES
  ('NTALVESEDL [PALLS, Q8WX93]', 3.73),
  ('TKDKVQETQI [LRRC4, Q9HBW1]', 5),
  ('IQISELETNV [SLC1A7, O00341]', 4.74),
  ('PAALPESTHM [SLC9A3, P48764]', 3.55),
  ('VCMGDHWFDV [PRKN, O60260]', 3.98),
  ('AKADAQESRL [PLCB2, Q00722]', 4.44),
  ('EKPIDSETKM [SLC1A3, P43003]', 3.58),
  ('MQILSKPEFI [NPSR1, Q6W5P4]', 3.59),
  ('GNDPDRGTSI [GRID2, O43424]', 4.29),
  ('GQNMTVSVVI [PRLHR, P49683]', 3.66),
  ('TNSKQGETTV [FZD1, Q9UP38]', 4.38),
  ('GTMFLRETSL [GUCY1A2, P33402]', 5.37),
  ('DFKHTKSFII [JAM2, P57087]', 3.65),
  ('SSSVNVSSNL [CXCR1, P25024]', 4.02),
  ('RDYTQSSSSL [GRM5, P41594]', 4.05),
  ('QRYPGNQTTC [CCL24, O00175]', 3.64),
  ('VYEVPVETKF [SLC26A3, P40879]', 4.44),
  ('EPAKETTTNV [SLC2A3, P11169]', 3.82);
